System: SK-MEL-2 melanoma
Test: NCI-60 one-dose screen, 48 h
Details: 10 µM unless noted
The panel holds about 83,000 compounds, 20% with a hit somewhere; the sample as a whole holds those more often. Calls of active or inactive are those of the source. The calls were made as follows: active = growth percent below 10; inactive = the rest.
Thanks in advance; please answer with one of these: active, inactive

INSERT INTO results (compound, assayed_system, label_class) VALUES
  ('CN1CCN(Cc2ccc(NC(=O)c3cncc(C#Cc4cnc(N)c5cnccc45)c3)cc2C(F)(F)F)CC1', 'SK-MEL-2 melanoma', 'active'),
  ('CCC(=O)Oc1ccc(/C(=C(/C)Cc2cccc(OC)c2)c2ccc(OCCN(C)C)cc2)cc1', 'SK-MEL-2 melanoma', 'inactive'),
  ('Cc1ccc(S(=O)(=O)c2nc(-c3ccccc3)oc2S(C)(=O)=O)cc1', 'SK-MEL-2 melanoma', 'inactive'),
  ('C=C1C(=O)O[C@H]2[C@H]1CC/C(Cn1cc(CNC(=O)/C=C/c3c[nH]c4ccccc34)nn1)=C\CC[C@@]1(C)O[C@@H]21', 'SK-MEL-2 melanoma', 'inactive'),
  ('O=C(NCCNc1nccc(-n2ccc3cccnc32)n1)c1ccc(C(F)(F)F)cc1', 'SK-MEL-2 melanoma', 'inactive');

q: Hi team, can someone confirm the assay call for COc1cccc(/C=C2\Oc3cc(OCCCN4CCCC4)ccc3C2=O)c1 ?
a: inactive

q: Write down the call the test reported for this compound. Item: CCCCCCN1CSC(=S)N(CCCCCC)C1
a: inactive

q: What outcome does the record of this test show for Cn1cc(-c2cnc3ccc(NC(=O)Nc4ccc(F)c(Br)c4)cc3n2)cn1 ?
a: active

q: Record lookup: outcome of this test for CCCC(=O)Oc1ccc(/C(=C(\C)c2ccccc2)c2ccc(OCCN(CC)CC)cc2)cc1 ?
a: inactive

q: Called result for COc1cc2c(=O)n(C3CCCCCC3)c3c4cc[nH]c4ncc3c2cc1OC
a: inactive

q: GET /call?item= Cc1ccc(S(=O)(=O)NCCNc2cc(-c3cn(C(C)(C)C)nc3-c3cccc(O)c3)ccn2)cc1 returns the recorded outcome of this test.
a: inactive

q: For COc1cc(/C=C/C(=O)c2ccc(Nc3ncnc4cc(OC)c(OC)cc34)cc2)cc(OC)c1 , what call appears in the results of this test?
a: inactive

q: Give the logged outcome of this assay for the following compound: O=S(=O)(NCCNc1nccc(-c2c(-c3ccc(F)cc3)nc3sccn23)n1)c1ccc(F)cc1
a: inactive

q: What classification did O=C(O)c1cn(C2CC2)c2cc(N3CCN(C(=O)/C=C/c4ccc(Cl)cc4)CC3)c(F)cc2c1=O end up with in this test?
a: inactive

q: Which result was noted for this compound in the test: N=C(N)c1ccc(-c2ccc(-c3ccc(-c4cccs4)s3)s2)cc1
a: inactive

q: # lookup: test call for O=[N+]([O-])c1cccc(-c2nc3sccn3c2-c2ccnc(NCCCNS(=O)(=O)c3ccc(Cl)cc3)n2)c1
a: inactive

q: Dear colleague, could you share the recorded outcome for CCOC(=O)/C(C#N)=C1/C(=O)Nc2ccccc21 when you have a moment?
a: inactive

----------
Tested on: OVCAR-4 ovarian
Experiment: NCI-60 one-dose screen, 48 h (100 = growth as untreated, 0 = no growth, -100 = all killed)
Settings: 10 µM unless noted
Compounds without any hit were thinned out: in the full panel of roughly 83,000, 20% have a hit.
test.readout: growth (%)
# output: bare number, implied unit %

Previously resolved entries follow.
INSERT INTO results (compound, experimental_value) VALUES
  ('C=C1C(=O)O[C@H]2[C@H]1CC/C(COC(=O)NCc1ccccc1OC)=C\CC[C@@]1(C)O[C@@H]21', 41.7),
  ('O=C(O)c1cn(C2CC2)c2cc(N3CCN(C(=O)/C=C/c4ccc(Cl)cc4)CC3)c(F)cc2c1=O', 81),
  ('Cc1ccc(S(=O)(=O)/C(=C\c2ccc(Cl)cc2)C(=O)c2ccccc2)cc1', 107),
  ('O=S1(=O)CCC(N(/N=C/c2ccco2)c2ccccc2)C1 (centres undefined)', 127),
  ('C=CCSc1n[nH]c(-c2cccs2)n1', 107);

q: What value of growth has been reported for the following compound? CCCC(=O)Oc1ccc(/C(=C(\C)c2ccccc2)c2ccc(OCCN(CC)CC)cc2)cc1
a: 86.6

q: Fill blank: measured growth of the compound COc1ccc(Nc2[nH]n3c(=O)cc(-c4ccccc4)nc3c2C(=O)Nc2ccc(C)cc2)c(OC)c1 is ____.
a: 89.6

q: Could you tell me which growth is on file for Fc1ccc(-c2nc(-c3nc4ncccc4[nH]3)cc3c2[nH]c2ccccc23)cc1F ?
a: 60.2

q: Fill blank: measured growth of the compound COc1cc(-c2ncn(/C=C\C(=O)OC(C)C)n2)cc(C(F)(F)F)c1 is ____.
a: 0.627
